Reported values of IC50 for individual entries
Target system: central benzodiazepine receptor
Experimental details: In vitro binding assay for central benzodiazepine receptors ([^3H]-Ro 15-1788, rat cortex membranes)
Condition description: rat cortex membrane / rat brain homogenates, [^3H]-Ro 15-1788 2 nM, 25° C., 45 minutes; read-out: IC50 (nM) CBR
Supply the numeric figure in nM, leaving out any unit text.

Reference set, count: 6
[
  {
    "Compound": "Cc1ccc2nc(-c3ccc(I)cc3)c(CC(=O)N(C)C)n2c1 [E, reference compound]",
    "IC50 / nM": 155
  },
  {
    "Compound": "CNC(=O)Cc1c(-c2ccc(Cl)cc2)nc2ccc(Br)cn12 [C]",
    "IC50 / nM": 15
  },
  {
    "Compound": "CN(C)C(=O)Cc1c(-c2ccc(Cl)cc2)nc2ccc(Br)cn12 [D]",
    "IC50 / nM": 56.5
  },
  {
    "Compound": "CN(C)C(=O)Cc1c(-c2ccc(I)cc2)nc2ccc(Cl)cn12 [Example 2]",
    "IC50 / nM": 168
  },
  {
    "Compound": "NC(=O)Cc1c(-c2ccc(F)cc2)nc2ccc(Cl)cn12 [Comparative Example A]",
    "IC50 / nM": 170
  },
  {
    "Compound": "CNC(=O)Cc1c(-c2ccc(F)cc2)nc2ccc(Cl)cn12 [B]",
    "IC50 / nM": 5.9
  }
]

Which IC50 is listed for CCCN(C)C(=O)Cc1c(-c2ccc(I)cc2)nc2ccc(Cl)cn12 [Example 4] ? 117

====

Target system: UniProtKB P16257
Sequence (P16257 whole entry): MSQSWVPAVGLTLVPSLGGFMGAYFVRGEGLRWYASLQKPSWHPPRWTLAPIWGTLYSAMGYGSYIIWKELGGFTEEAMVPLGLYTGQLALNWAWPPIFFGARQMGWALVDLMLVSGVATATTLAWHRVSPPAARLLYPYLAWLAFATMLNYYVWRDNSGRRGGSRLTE
Experimental details: In vitro binding assay for peripheral benzodiazepine receptors ([^3H]-PK11195, rat kidney membranes)
Parameters: diluted kidney membrane preparation; from tissue; host or cells: rat kidney membranes (Sprague Dawley)
Condition description: rat kidney membrane, [^3H]-PK11195 2 nM, 4° C., 1 hour; read-out: IC50 (nM) PBR
Metric: IC50 (nM)
Supply the numeric figure in nM, leaving out any unit text.

Which IC50 is listed for `CCCCN(C)C(=O)Cc1c(-c2ccc(I)cc2)nc2ccc(Cl)cn12` ? 266

====

Target system: UniProt P16257
Experimental details: In vitro binding assay for peripheral benzodiazepine receptors ([^3H]-PK11195, rat kidney membranes)
Design: diluted kidney membrane preparation; from tissue; host or cells: rat kidney membranes (Sprague Dawley)
Reported values of IC50 for individual entries
Supply the numeric figure in nM, leaving out any unit text.

[
  {
    "Compound": "CNC(=O)Cc1c(-c2ccc(I)cc2)nc2ccc(Cl)cn12",
    "Target system": "UniProt P16257",
    "Reading": 0.99
  },
  {
    "Compound": "CCCCN(CCCC)C(=O)Cc1c(-c2ccc(I)cc2)nc2ccc(Cl)cn12",
    "Target system": "UniProt P16257",
    "Reading": 177
  }
]

Which IC50 is listed for `CN(C)C(=O)Cc1c(-c2ccc(Cl)cc2)nc2ccc(Br)cn12` ? 90

Which IC50 is listed for `CN(C)C(=O)Cc1c(-c2ccc(I)cc2)nc2ccc(Cl)cn12` ? 2.3

Which IC50 is listed for Cc1ccc2nc(-c3ccc(I)cc3)c(CC(=O)N(C)C)n2c1 [E, reference compound] ? 176

Which IC50 is listed for `CCCN(CCC)C(=O)Cc1c(-c2ccc(I)cc2)nc2ccc(Cl)cn12` ? 3.91

Which IC50 is listed for `CCCN(C)C(=O)Cc1c(-c2ccc(I)cc2)nc2ccc(Cl)cn12` ? 0.98

Which IC50 is listed for `CNC(=O)Cc1c(-c2ccc(Cl)cc2)nc2ccc(Br)cn12` ? 33

Which IC50 is listed for `NC(=O)Cc1c(-c2ccc(F)cc2)nc2ccc(Cl)cn12` ? 3340

====

Reported values of IC50 for individual entries
Target system: central benzodiazepine receptor
Experimental details: In vitro binding assay for central benzodiazepine receptors ([^3H]-Ro 15-1788, rat cortex membranes)
Condition description: rat cortex membrane / rat brain homogenates, [^3H]-Ro 15-1788 2 nM, 25° C., 45 minutes; read-out: IC50 (nM) CBR

[
  {
    "Compound": "CNC(=O)Cc1c(-c2ccc(I)cc2)nc2ccc(Cl)cn12 [Example 1]",
    "Target system": "central benzodiazepine receptor",
    "IC50": "> 1000 nM"
  },
  {
    "Compound": "CCCCN(CCCC)C(=O)Cc1c(-c2ccc(I)cc2)nc2ccc(Cl)cn12 [Example 7]",
    "Target system": "central benzodiazepine receptor",
    "IC50": "> 1000 nM"
  },
  {
    "Compound": "CCN(CC)C(=O)Cc1c(-c2ccc(I)cc2)nc2ccc(Cl)cn12 [Example 3]",
    "Target system": "central benzodiazepine receptor",
    "IC50": "> 1000 nM"
  },
  {
    "Compound": "CCCCN(C)C(=O)Cc1c(-c2ccc(I)cc2)nc2ccc(Cl)cn12 [Example 6]",
    "Target system": "central benzodiazepine receptor",
    "IC50": "> 1000 nM"
  }
]

Would you kindly look at the next entry?
Which IC50 is listed for CCCN(CCC)C(=O)Cc1c(-c2ccc(I)cc2)nc2ccc(Cl)cn12 [Example 5] ? > 1000 nM
